Each recorded value in this set is attributed to PubChem BioAssay.

Reported viability is given for each of the following molecules.
PROCEDURE_DETAILS: reversal of MRP1-mediated doxorubicin resistance, pilot screen, H69AR cells, doxorubicin co-treatment (AID 601)
EXPERIMENTAL_PARAMETERS: H69AR cells + 2 uM doxorubicin, CellTiter-Glo, 72 h; measured here: viability with 2 uM doxorubicin; at 10 µM; stronger effect = lower value
MEASUREMENT_LABEL: viability (%)

c1ccc2c(c1)CNC1(CCCCC1)C2; 88.6
CCOC(=O)c1cccc(NC(=O)CSc2nc3ccccc3c(=O)n2CC)c1; 67
O=S(=O)(c1ccc(OCC(O)CN2CCC(Cc3ccccc3)CC2)cc1)N1CCOCC1 (stereo unspecified); 94.2
Cc1cnc(C(=O)Nc2ccc(N3CCOCC3)cc2)cn1; 88.5
CN(C)S(=O)(=O)NC(c1ccccc1)c1ccccc1; 88.9
CCOC(=O)C1=C(c2ccccc2)NC(=O)NC1c1ccc(N(C)C)cc1 (stereo unspecified); 97

---

PROCEDURE_DETAILS: RAM signaling pathway blockade in yeast – S. cerevisiae, Pdr1DBD-CYC8 efflux-inhibited sensitized strain, primary screen (AID 1298);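 also: 0% = DMSO untreated cells without growth and 100% = 10 µM 1-NA-PP1 full growth; higher means more yeast growth rescued from 5-FOA killing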
EXPERIMENTAL_PARAMETERS: S. cerevisiae cbk1-as DSE1-URA3 strain, 5-FOA growth OD615, 2 d; at 50 µM; stronger effect = higher value
MEASUREMENT_LABEL: RAM network inhibition (%)

COc1ccc(C(=O)Nc2cc3c(cc2C#N)OCO3)cc1S(=O)(=O)N1CCN(C)CC1; 5.27
COc1ccc(CCNC(=O)c2oc3ccc(S(=O)(=O)N4CCOCC4)cc3c2C)cc1OC; 3.69
O=C(C1CCC(CNc2c(N3CCCCC3)c(=O)c2=O)CC1)N1CCN(c2ccccn2)CC1 (configuration not stated); 4.92
COc1ccc(-c2nc(N3CCOCC3)nc3n[nH]c(N)c23)cc1; 3.37
CCC(CC)C(=O)Nc1ccccc1NC(C)=O; 4.35
Cc1ccc(-c2nc3cccnc3o2)cc1NC(=O)COc1ccc(Cl)cc1C; 8.1
CSc1nnc2c(n1)OC(c1cn(C)c3ccccc13)N(C(C)=O)c1ccccc1-2 (configuration not stated); 3.59
O=C(CSc1nc(-c2ccco2)cc(C(F)(F)F)n1)Nc1ccc(C(=O)N2CCCCC2)cc1; 3.42
Cc1c(C(=O)NCCC2=CCCCC2)oc2ccc(S(=O)(=O)N3CCOCC3)cc12; 8.35
Cc1ccnc(Nc2nc3ccccc3o2)n1; 4.15
COc1ccc(C2C(C(=O)NCc3ccccn3)c3cc(OC)c(OC)cc3C(=O)N2C)cc1 (configuration not stated); 5.92
O=C(O)CCC(=O)N1CCc2cc(S(=O)(=O)N3CCC(Cc4ccccc4)CC3)ccc21; 3.85
CCOc1ccc(-n2c(SCc3ccc(C(=O)OC)o3)nc3c(c2=O)SCC3)cc1; 6.94
Cc1cc(C)nc(SCC(=O)Nc2ccc(S(=O)(=O)Nc3onc(C)c3C)cc2)n1; -1.62
NC(=O)CCn1nc(-c2ccccc2)c2ccccc2c1=O; 0
Nc1c(C(=O)NCc2cccnc2)sc(=S)n1-c1ccccc1; 2.58
CSc1nc2c(cnn2-c2ccc(C)c(C)c2)c(=O)[nH]1; 0.57
O=C(O)c1cc2c(s1)-c1ccccc1OC2; -2.9
CC(NC(=O)COc1ccccc1)C(c1ccccc1)N1CCN(C)CC1 (configuration not stated); 4.65
CCOc1ccccc1NC(=O)c1c(NC(=O)CNCc2ccco2)sc2c1CCC2; 8.57
COc1ccc(C2C(C(=O)N3CC(C)CC(C)C3)c3ccccc3C(=O)N2C)cc1 (configuration not stated); 0.47
CCCOC(=O)c1ccc(OCC(O)Cn2c(C)nc3ccccc32)cc1 (configuration not stated); 6.95

---

PROCEDURE_DETAILS: reversal of MRP1-mediated doxorubicin resistance, pilot screen, H69AR cells, doxorubicin co-treatment (AID 601)
EXPERIMENTAL_PARAMETERS: H69AR cells + 2 uM doxorubicin, CellTiter-Glo, 72 h; at 10 µM; stronger effect = higher value
MEASUREMENT_LABEL: differential viability (reversal) (%)

Cc1cc(C)n(-c2nnc(C)n2/N=C/c2ccccc2F)n1; 13.3
CCOC(=O)c1oc2ccccc2c1CSc1nnnn1-c1ccc(OC)cc1; 1.07
CCOC(=O)c1c(C)c(C(=O)NCC2CCCO2)c(C)n1C (stereo not drawn); 11.9
CCOC(=O)C1=C(c2ccccc2)NC(=O)NC1c1ccc(N(C)C)cc1 (stereo not drawn); 0.56
CN(C(=O)c1ccc2c(=O)n3c(nc2c1)CCCCC3)c1ccccc1; 0.655
Cc1cc2cc(CN(CCCN3CCOCC3)C(=O)NC3CCCCC3)c(=O)[nH]c2cc1C; 6.29
CC(C)c1nnc(SCC(=O)NCc2ccco2)n1C; -5.55
CCCCN(C)C(=O)CS(=O)(=O)Cc1nc(-c2cccc(OC)c2)oc1C; 15.6
COc1ccccc1CN1C(=O)CCC1(C)C(=O)NC1CCCCCC1 (stereo not drawn); 2.86
CCOc1cc(N2CCOCC2)c(OCC)cc1NC(=O)COC(=O)CCc1c[nH]c2ccccc12; 4.66
O=c1c2c3c(sc2n2cnnc2n1CCc1ccccc1)CCCC3; 8.96
Cc1nc(N2CCc3ccccc32)[nH]c(=O)c1CCC(C)C; 9.09
CCSc1cc(C2C(C(=O)OC)=C(C)NC3=C2C(=O)CCC3)c(C)o1 (stereo not drawn); 5.68
CCCCSc1nc2c(cnn2-c2ccc(Cl)cc2)c(=O)[nH]1; 2.96
Cc1[nH]c2ccccc2c(=O)c1CN(C)Cc1ccccc1; 2.49
Cc1ccc(S(=O)(=O)NCC(=O)N(CC(=O)NC2CCCCC2)Cc2ccco2)cc1; 2.62
Cc1nc2cc(Cl)ccc2n1CCO; 7.68
O=C1CC(c2ccc(S(=O)(=O)N3CCN(c4ccccc4)CC3)cc2)CN1 (stereo not drawn); 1.82
CCCCSc1cc(C)nc2ncnn12; -1.97
Cc1cc(N2C(=O)C3C4C=CC(C4)C3C2=O)ccc1Br (stereo not drawn); 11.6
CCCC1(C(=O)OCC)NC(c2ccc(N(C)C)cc2)C2C(=O)N(c3ccc(F)cc3)C(=O)C21 (stereo not drawn); 13.8
CCc1nc2sc3c(c2c(=O)o1)CCCC3; -0.255
CN(C)C(=O)c1ccc(COc2ccccc2Br)o1; 13

---

Reported viability is given for each of the following molecules.
PROCEDURE_DETAILS: reducers of endogenous Her2 protein level, primary screen, SKBR3 breast tumor cells, AlphaScreen, ATP viability (AID 461);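 also: percent of carrier control wells set as 100% viability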
EXPERIMENTAL_PARAMETERS: 18-24 h, measured here: SKBR3 viability, ATP luminescence, at 10 µM
MEASUREMENT_LABEL: viability (%)

CCC1CCCN1Cn1cnc2c([nH]c3ccc(OC)cc32)c1=O (stereo not drawn); 104
CC(=O)OCC(=O)[C@@]12OC3(CCCC3)O[C@@H]1C[C@H]1[C@@H]3CCC4=CC(=O)C=C[C@]4(C)[C@@]3(F)[C@@H](O)C[C@@]12C; 132
CC1(C)CC(=O)C2=C(C1)OC(=O)C2(NC(=O)c1cccs1)C(F)(F)F (stereo not drawn); 102
O=C1CC(c2ccc(S(=O)(=O)N3CCN(c4ccccc4)CC3)cc2)CN1 (stereo not drawn); 96
COc1cccc(-c2cc(C(=O)N3CCc4ccccc4C3)no2)c1; 99.5
Cc1cc(Cl)c(S(=O)(=O)N2CCN(c3ccc(F)cc3)CC2)cc1OCC(N)=O; 82.5
COc1cc2nc(N3CCN(C(=O)C4CCCO4)CC3)nc(N)c2cc1OC (stereo not drawn); 100
COC(=O)C(C)C1Sc2ccccc2NC1=O (stereo not drawn); 121
O=C1N=C(N2CCOCC2)CS1; 108
OC(CCN1CCCCC1)(c1ccccc1)C1CCCCC1 (stereo not drawn); 69.5
CN1CCC(=C2c3ccccc3CC(=O)c3sccc32)CC1; 96
O=C1c2ccccc2C(=O)N1CNc1ccccc1; 96.5
Cc1cc(NC(=O)C23CCC(C)(c4nc5cc(Cl)c(Cl)cc5nc42)C3(C)C)no1 (stereo not drawn); 124
Cn1c(=N)c(S(=O)(=O)c2ccc(Cl)cc2)cc2c(=O)n3ccccc3nc21; 110
CC(C)CCNC(=O)[C@H](CC(C)C)NC(=O)[C@H]1O[C@@H]1C(=O)O; 104
COC(=O)c1c(C)oc2ccc(NS(=O)(=O)c3cccs3)cc12; 106
O=C1N[C@@H](Cc2cnc[nH]2)C(=O)N2CCC[C@@H]12; 113
O=C(O)C1CC(=O)N(Cc2ccccc2)C1 (stereo not drawn); 109
COc1cc(C2C(C(=O)c3ccc(C)o3)=C(O)C(=O)N2c2cc(C)on2)cc(Br)c1O (stereo not drawn); 102
c1ccc2[nH]c(-c3cscn3)nc2c1; 106
CCOC(=O)C1=C(c2ccccc2)NC(=O)NC1c1ccc(N(C)C)cc1 (stereo not drawn); 85.5
CCOC(=O)C1=C(C)Nc2nnnn2C1c1c[nH]c2ccccc12 (stereo not drawn); 110
Cc1ccc2cc(C(c3nnnn3CC3CCCO3)N3CCCC4(CCCCC4)C3)c(=O)[nH]c2c1 (stereo not drawn); 107
